The measured values listed here are drawn from PubChem BioAssay (EPA / NIEHS).

# Read-out: Potassium channel subfamily K member 1 (KCNK1), KCNK1 (gene 3775)
# ASSAY_METHOD_TEXT: LTEA_HepaRG_KCNK1: Life Technologies and Expression Analysis (LTEA) Assay for Potassium channel subfamily K member 1 (KCNK1) using HepaRG (AID 2283511)
# STATED_CONDITIONS: mRNA level, 48 h; actives raise or lower the signal
Active and inactive are the calls of the source. How the source made its calls: active means hit-call score of the fitted dose curve at least 0.9, where 1 is the maximum; inactive means score below 0.9.
Could you please pick one outcome from this set? t (active), f (inactive)

Example entries begin here.
INSERT INTO measurements (molecule, cat) VALUES
  ('CCOc1nc(C(Cl)(Cl)Cl)ns1', 't'),
  ('COP(=S)(OC)SCn1nnc2ccccc2c1=O', 'f'),
  ('CC1(C)CCC(=Cc2ccc(Cl)cc2)C1(O)Cn1cncn1 (stereo unspecified)', 'f'),
  ('CCNP(=S)(OC)O/C(C)=C/C(=O)OC(C)C (stereo unspecified)', 'f'),
  ('O=C(Nc1ccccc1-c1ccc(Cl)cc1)c1cccnc1Cl', 'f'),
  ('CC1(C)CON(Cc2ccccc2Cl)C1=O', 'f');

# lookup: test call for CCOP(=S)(OCC)Oc1nc(Cl)n(C(C)C)n1
f

GET /call?item= COP(=O)(OC)O/C(C)=C/C(=O)N(C)C returns the recorded outcome of this test.
f

Tell me the recorded outcome of this test for Cn1c(-c2ccccc2)cc(-c2ccccc2)[n+]1C .
f

###

# ASSAY_METHOD_TEXT: CCTE_Shafer_MEA_dev_inter_network_spike_interval_mean: CCTE's Neural Network Formation Assay for Mean Inter-network Spike Interval, Shafer Lab (AID 2284047)
The source made the active and inactive calls. How the source made its calls: active means hit-call score of the fitted dose curve at least 0.9, where 1 is the maximum; inactive means score below 0.9.
Response enum: active, inactive

Please review the following examples before continuing.
INSERT INTO results (molecule, cat) VALUES
  ('CC(C)(C)C(=O)C(Oc1ccc(Cl)cc1)n1cncn1 (stereo unspecified)', 'inactive'),
  ('COP(=O)(OC)O/C(C)=C/C(=O)N(C)C', 'inactive'),
  ('CNC(=O)Oc1cccc2ccccc12', 'inactive'),
  ('COC(=O)N(C(=O)N1CO[C@@]2(C(=O)OC)Cc3cc(Cl)ccc3C2=N1)c1ccc(OC(F)(F)F)cc1', 'inactive'),
  ('COP(=S)(OC)SCn1nnc2ccccc2c1=O', 'inactive');

For this molecule, state the assay outcome: CC1(C)C(C(=O)OC(C#N)c2cccc(Oc3ccccc3)c2)C1(C)C (stereo unspecified)
active

###

# Read-out: Human Leukocyte Antigen - DR isotype (HLADR), HLA-DRA (gene 3122)
# ASSAY_METHOD_TEXT: BSK_BE3C_HLADR: BioMAP Diversity Plus: BE3C Assay for Human Leukocyte Antigen - DR isotype (HLADR) Biomarker Activity (AID 2283032)
# STATED_CONDITIONS: primary human bronchial epithelial cells; actives raise or lower the signal
Calls of active or inactive are those of the source. How the source made its calls: active means hit-call score of the fitted dose curve at least 0.9, where 1 is the maximum; inactive means score below 0.9.
Your answer must be one of the following: y (active), n (inactive)

Example entries begin here.
INSERT INTO assay_data (compound, cat) VALUES
  ('CCC(C)n1c(=O)[nH]c(C)c(Br)c1=O (stereo unspecified)', 'n'),
  ('CCCCOCN(C(=O)CCl)c1c(CC)cccc1CC', 'y'),
  ('CC(C)N1C(=O)c2ccccc2NS1(=O)=O', 'n'),
  ('COP(=O)(OC)O/C(C)=C/C(=O)N(C)C', 'n'),
  ('CCOC(=O)C(C)OC(=O)c1cc(Oc2ccc(C(F)(F)F)cc2Cl)ccc1[N+](=O)[O-] (stereo unspecified)', 'y');

State the result this test recorded for Nc1cnn(-c2ccccc2)c(=O)c1Cl .
n
